This section presents molecules with their documented growth inhibition values.
assay: NCI Yeast Anticancer Drug Screen. Data for the mlh1 rad18 strain (AID 175); conditions: S. cerevisiae mlh1 rad18 strain growth inhibition; at 50.0 µM (retest, dose inferred, filed as 5.0); active compounds read high
The panel holds about 79,000 compounds, 15% with a hit somewhere; the sample as a whole holds those more often.
attribute-measured: growth inhibition (%)

molecule | unit-label | reported-result
CC1(C)C2CCC(C2)C1OC(=O)c1ccccc1C(=O)O (stereo not drawn) | % | 6
COc1cc2c(cc1C(C)C)CCC1C(C)(C#N)CCCC21C (stereo not drawn) | % | -29
O=c1oc2ccccc2c(O)c1C1=N/C(=N/N=C/c2ccc(Cl)cc2)SC1 | % | 97
COC(=O)CS(=O)(=O)CCS(=O)(=O)CC(=O)OC | % | 11
CCCCCCCCNc1ccc(Cl)cc1 | % | 97
COc1ccc(C(=O)c2ccc([N+](=O)[O-])cc2)cc1 | % | 0
NN(Cc1ccccc1)c1ccccc1 | % | 77
O=[N+]([O-])c1ccc(SC(=S)N2CCCCC2)c([N+](=O)[O-])c1 | % | 98
CC(C)(C)c1cc(Nc2ccc([N+](=O)[O-])cc2[N+](=O)[O-])cc(C(C)(C)C)c1O | % | 99
O=C(O)c1ccc([N+](=O)[O-])o1 | % | 41
CCCCCCCCCCCC[N+]1(C)CCCC1c1cccnc1 (stereo not drawn) | % | 97
CCCCCCCCCCCCCCCCCC[N+]1(C)CCC[N+](C)(CCCCCCCCCCCCCCCCCC)CC1 (stereo not drawn) | % | 24
CC#CCCCCOC(=O)c1cc([N+](=O)[O-])cc([N+](=O)[O-])c1 | % | 99
CCCCCCCCCC(=O)CC(=O)c1ccc(O)cc1O | % | 97
CCSc1nnc(CSc2nc(-c3ccccc3)c(-c3ccccc3)[nH]2)n1-c1ccccc1 | % | 28
Cc1ccccc1NC(=O)C1C(=O)N(c2ccccc2C)C(=O)/C1=N/O (stereo not drawn) | % | -2
O=C1CC2(CCCC2)C(=O)N1c1ccc(N2C(=O)CC3(CCCC3)C2=O)cc1 | % | -5
NCCCNCc1c2ccccc2c(CNCCCN)c2ccccc12 | % | 4
CCCC/C=C(\CCCNCCCC)[Si](C)(C)C | % | 98
Nc1ccc2ccccc2c1N=Cc1ccccc1[N+](=O)[O-] | % | 91
CNC(=O)c1cccc2c(Nc3ccc(NS(C)(=O)=O)cc3OC)c3cccc(C)c3nc12 | % | 86
CC(=O)N1C/C(=C\c2ccccc2)C(=O)/C(=C/c2ccccc2)C1 | % | 96
CN1C/C(=C\c2ccccc2)C(=O)C(c2ccccc2)C1 (stereo not drawn) | % | 95
